Target: JAK2 (Homo sapiens, UniProt O60674)
Construct: made in house; host or cells: SF9 insect cells (baculovirus)
Sequence (O60674 812-1132): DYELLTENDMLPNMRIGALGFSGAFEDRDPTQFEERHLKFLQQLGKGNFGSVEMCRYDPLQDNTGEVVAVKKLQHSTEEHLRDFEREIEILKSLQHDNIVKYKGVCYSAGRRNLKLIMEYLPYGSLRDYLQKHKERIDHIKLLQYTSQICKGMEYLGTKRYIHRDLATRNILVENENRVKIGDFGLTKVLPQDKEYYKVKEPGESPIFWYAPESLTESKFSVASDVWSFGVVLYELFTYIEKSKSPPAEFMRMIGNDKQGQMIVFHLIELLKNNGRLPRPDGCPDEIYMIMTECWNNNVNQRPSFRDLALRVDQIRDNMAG
Assay: JAK2 inhibition (Table 4)
Assay type: biochemical
Settings: read-out: JAK2 Ki
outcome.measure: pKi
// scale note: pKi = -log10(conc_M); give the bare number

The cases that follow already have their pKi on record.
c1cc2c(ncc3nnn(C4CCOCC4)c32)[nH]1 [Example 467]: 7.11
c1cncc(CN2CCCC(n3cnc4cnc5[nH]ccc5c43)CC2)c1 (racemic) [Example 487]: 7.51
CCN1CCC(n2c(CCNS(C)(=O)=O)nc3cnc4[nH]ccc4c32)C(F)(F)C1 (single isomer, unassigned) [Example 805]: 7.44

# input Report pKi for Cc1cc(Cc2nc3cnc4[nH]ccc4c3n2C2CCOCC2)on1 [Example 472] tested on JAK2 (Homo sapiens, UniProt O60674).
# output 6.16
